All figures here come from ChEMBL document CHEMBL3433997.

Target: Glucose transporter (Leishmania mexicana) (UniProt O61059)
Assay: ST_JUDE_LEISH: Cytotoxicity at 2uM final concentration against transgenic Leishmania Mexicana promastigotes LmGT2 that are glucose transport deficient and complemented with the L. Mexicana glucose transporter 2. Activity is measured by DNA content using SYBR green in vitro
Format: functional
MEASURE: inhibition (%)
Answer with a number only, understood to be in %.

Please report the measured inhibition for `COc1ccc2nc(-c3ccccc3)cc(N/N=C/c3ccc([N+](=O)[O-])o3)c2c1`
10.3

Identify measured inhibition associated with CC(Nc1nc(Nc2ccc(F)cc2)nc(SCC(N)=O)n1)c1ccccc1 (stereo not drawn)
0.81

Complete the entry with inhibition for COc1ccc2ncc(F)c(CCN3C4CCC3CC(NCc3cc5c(cn3)OCS5)C4)c2n1 (stereo not drawn)
64.1

Provide only the value of recorded inhibition for `COCCN(C)c1ccc(C(=O)Nc2ccccc2)cc1NS(=O)(=O)Cc1ccccc1`
3.54

Respond only with inhibition recorded for `COc1c(C2=CCN(CCCCNC(=O)c3ccc(-c4ccc(C#N)cc4)cc3)CC2)c(C)cc2c1C(C)(C)CCC2(C)C`
0.96

Note down inhibition recorded for CN(C)c1ccc(-c2csc(C(=O)NC3CCCCN(CCC(C)(C)C)C3)c2)cc1 (stereo not drawn)
0.68

###

Biological target: Glucose transporter (Leishmania mexicana)
Assay: ST_JUDE_LEISH: Cytotoxicity at 2uM final concentration against transgenic Leishmania Mexicana promastigotes LmGT2 that are glucose transport deficient and complemented with the L. Mexicana glucose transporter 2. Activity is measured by DNA content using SYBR green in vitro
Type: functional
Here, each record is paired with measured inhibition data.
Write the value in % as a bare number.

For orientation, consider the following solved cases.
COc1ccc2nccc([C@@H](O)CN3CCC(NC(=O)c4cc5c(Cl)cc(Cl)cc5[nH]4)CC3)c2c1 | 0.08
CCC(C)Oc1ccc(CCCON2C(N)=NC(N)=NC2(C)C)cc1 (centres undefined) | 13.8
COc1ccc(CNCCc2cccs2)cc1-c1ccc(S(=O)(=O)NCCN2CCCC2)cc1 | 2.85
COc1cc2ncnc(Nc3ccc(OCc4ccccc4)c(OCc4ccccc4)c3)c2cc1OC | 2.69

Please look at this compound and report its inhibition: O=C(/C=C/c1ccc(Cl)c(Cl)c1)NCCCCCN1CCCC(CNC(=O)/C=C/c2ccccc2)C1 (centres undefined)
-0.59

Note down inhibition recorded for CCCN(Cc1nnc(-c2ccco2)o1)C(=O)C1CCCN(C(=O)c2ccc(Cl)cc2)C1 (centres undefined)
-0.96

// Input: `Cc1cccc2nc(-c3cccc(-c4ccc(NC(=O)CS(C)(=O)=O)cc4)c3)[nH]c12` . Output its inhibition only.
3.81

Give recorded inhibition. `Cc1[nH]c(C)c(-c2ccc(-c3ccccc3C(F)(F)F)nc2)c(=O)c1Br`
0.55

Fill in reported inhibition for this entry: `O=C(NC1CCN(Cc2cccc(C(F)(F)F)c2)CC1)c1ccc(-c2cccc(C(F)(F)F)c2)s1`
6.14

###

Target: Hexose transporter 1 (Plasmodium falciparum)
Experiment: ST_JUDE_LEISH: Cytotoxicity at 2uM final concentration against transgenic Leishmania Mexicana promastigotes LmPfHT that are glucose transport deficient and complemented with the Plasmodium falciparum hexose transporter. Activity is measured by DNA content using SYBR green in vitro
Format: functional
inhibition values, listed per item
Report as a plain number; the unit % is understood.

Cc1cc(N(C)C)nc(Nc2ccc(NC(=O)Nc3ccccc3)cc2)n1 | 3.74

Given `CC(C)COc1ccc(Cl)cc1Nc1nc(-c2nc3ccccc3[nH]2)cs1` , respond with its inhibition.
1.35

Output inhibition of `O[C@H]1[C@H](OCc2ccc(-c3ccccc3)cc2)CC[C@@H]1N1CCCCC1`
1.54

Supply inhibition value. Item: `CCCCCNc1nc2nc(N)nc(N)c2nc1-c1ccccc1`
9.23

Using known records, supply inhibition for `Fc1cccc(Nc2nc(NCc3ccc4ccsc4c3)nc(Nc3cccc(F)c3)n2)c1`
18

For `NOCCCCOc1ccc(Br)cc1` , write its inhibition.
5.13

In one line, give reported inhibition of the entry `CCOC(=O)c1ccc(NC(=O)N(Cc2ccc(-c3ccc(CN4CCNCC4)cc3)cc2)C2CCN(Cc3ccccc3)CC2)cc1` .
2.86

Answer with reported inhibition of `O=C(NCc1ccc(F)cc1)c1cnc(N2CCN(c3ccncc3)CC2)c(Cl)c1`
11.6

Write down inhibition measured for item `COc1cccc(Cc2c(C)nc3nc(N)nc(N)c3c2C)c1`
1.04

For the molecule `Cc1noc(C)c1CN1Cc2ccccc2OC2(CCN(Cc3c[nH]c4cnccc34)CC2)C1` , give its measured inhibition value.
-0.56

Report measured inhibition; entry is `COc1ccc(-c2cc(NCc3ccc(-n4ccnc4)cc3)nc(Nc3ccccc3)n2)cc1`
0.85

For `Cc1ccc(CN2CCCN(Cc3cccc(NC(=O)c4cc5ccccc5s4)c3)CC2)cc1` , write its inhibition.
-0.94

Consider the molecule COc1ccc(C(=O)Nc2cc(Cl)c3c(c2)C2CCCN2CC3)cc1C(F)(F)F (stereo not given) . State its measured inhibition.
2.02

Provide measured inhibition value, entry: `Cc1cc(NC(=O)c2cccs2)ccc1OC1CCN(Cc2ccccc2)CC1`
3.27

###

Below: a set of entries, each annotated with reported inhibition.
Target: Glucose transporter (Leishmania mexicana) (UniProt O61059)
Assay: ST_JUDE_LEISH: Cytotoxicity at 2uM final concentration against transgenic Leishmania Mexicana promastigotes LmGT2 that are glucose transport deficient and complemented with the L. Mexicana glucose transporter 2. Activity is measured by DNA content using SYBR green in vitro
Type: functional
The answer is to be given in %; state only the numeric part.

O=C(Nc1cccc(CN2CCN(C(=O)c3ccccc3)CC2)c1)c1cccs1 | 3.92
CCc1cccc(OCCCON2C(=N)N=C(N)NC2(C)C)c1 | 8.16
COc1c(OC)c(OC)c2ccccc2c1CNCCCCCCNCc1c(OC)c(OC)c(OC)c2ccccc12 | 0.02
COc1ccc2cc(C(=O)NC3CCC(CCN4CCc5cc(C#N)ccc5C4)CC3)[nH]c2c1 (centres undefined) | 3.6
COc1ccc(C2=C(Nc3ccc4oc5ccccc5c4c3)c3ccccc3C2=O)cc1 | 0.33

Return value of inhibition for input `O=C(N[C@@H](Cc1ccccc1)C(=O)NC1CCCCCC1)c1ccc(O)c(-c2ccc(Cl)c(Cl)c2)c1` , no commentary.
3.08

Retrieve inhibition measured for `O=C(NCCCCCN1CCC(c2c[nH]c3ccccc23)CC1)c1ccc(-c2cccnc2)cc1` and print it.
1.15

Identify measured inhibition corresponding to `Cc1cc(CNCCCCCCNCc2ccc(-c3ccccc3)cc2)ccc1O`
4.84

Please give measured inhibition of the following entry: `CCNC(=O)Nc1ccc(N(C)c2ccnc(Nc3ccc(CS(C)(=O)=O)cc3)n2)cc1`
9.58

Answer with the recorded inhibition for the compound listed here: COc1cc(CCNCC(O)c2ccc([N+](=O)[O-])c(OCc3ccccc3)c2)cc(OC)c1OC (centres undefined)
0.48

Identify measured inhibition corresponding to `O=[N+]([O-])c1ccc2c(-c3ccccc3)c(-c3ccccc3)n(O)c2c1`
0.3

Please report the measured inhibition for `COc1ccc(CCCCN2C(=O)C(c3ccccc3)(c3ccccc3)N=C2N)cc1`
0.32

For `CCCCCCN1CCC(NCc2cccc(-n3ccnc3)c2)CC1` , write its inhibition.
9.81

Determine from records and report inhibition for CCc1cc2c3c(N)nc(N)nc3ccc2n1C(C)CC (centres undefined)
80.3

Kindly indicate its recorded inhibition. Item: `Oc1ccccc1-c1nc2cccnc2n1CCc1cccc(C(F)(F)F)c1`
5.31

Please list inhibition recorded for the compound `Oc1c(CN2CCC(Cc3ccccc3)CC2)cc(Cl)c2cccnc12`
9.31

Check the records and state inhibition for `Cc1cc(N[C@@H](CC(C)C)C(=O)NCCOc2ccccc2)nc(Nc2ccccc2)n1`
1.29

Read off the recorded inhibition for Cc1cccc2nc(-c3cccc(-c4ccc(NC(=O)C(C)CN(C)C)cc4)c3)[nH]c12 (centres undefined)
-1.14

Specify inhibition for `O=C(/C=C/c1ccc(Cl)c(Cl)c1)NCCCCCN1CCC(NC(=O)Nc2ccc(Cl)c(C(F)(F)F)c2)CC1` and stop.
1.66

Specify inhibition for `Cc1cccc2nc(-c3cccc(-c4cccc(CN5CCN(c6ccncc6)CC5)c4)c3)[nH]c12` and stop.
0.37

Give the value of inhibition reported for the following: `CC(C)(C)Nc1nc(Nc2cccc([N+](=O)[O-])c2)nc(-n2ccnc2)n1`
-1.47

Indicate the recorded inhibition value for this compound: `CC(C)c1sc(N2CCN(C)CC2)nc1C(=O)Nc1ccc(F)cc1C(F)(F)F`
2.97

Consider the compound N#Cc1cccc(NC(=O)c2cccc(S(=O)(=O)NC3CCN(CC4CCCCC4)C3)c2)c1 (centres undefined) . State its measured inhibition.
3.37

Supply inhibition value. Item: `Cn1cncc1-c1cc2c(Nc3ccc(OCc4ccccc4)cc3)ncnc2cn1`
1.66

Retrieve inhibition measured for `NC(=O)c1ccc(NC(=O)CN(Cc2ccc(Cl)cc2)S(=O)(=O)c2ccccc2)cc1` and print it.
7.46

Write down inhibition measured for item O=C(NCC1CCC(C(=O)NC2CCCc3ccccc32)CC1)c1ccc(O)c(-c2ccc(Cl)c(Cl)c2)c1 (centres undefined)
4.27
